- assayed system: HLA-B*27:20
- test protocol: IEDB peptide-MHC binding, purified MHC/competitive/fluorescence; filed as Kd, often an IC50 or EC50 that approximates it; bounds were set here for any values at or beyond the usual limits of such assays
- run conditions: source organism: Giardia lamblia ATCC 50803
measured attribute: pKd
For clarity, pKd is expressed as the negative log10 of concentration in mol/L.

# get_value(readout='pKd', item= YMRERFEPM )
9.30

---

- assayed system: HLA-A*30:01
- test protocol: IEDB peptide-MHC binding, purified MHC/competitive/radioactivity; filed as Kd, often an IC50 or EC50 that approximates it; bounds were set here for any values at or beyond the usual limits of such assays
- run conditions: source organism: Dengue virus 2 Jamaica/1409/1983
measured attribute: Kd (nM)
All answers are understood in nM, so give the number only.

Illustrative cases are given below, each with its answer.
[
  {
    "residue sequence": "AEISGSSPIL",
    "recorded measurement": 16100
  },
  {
    "residue sequence": "KSRLNALGK",
    "recorded measurement": 3.44
  },
  {
    "residue sequence": "VQVLALEPGK",
    "recorded measurement": 2520
  }
]

# get_value(readout='Kd', item= CTREEFTRK )
64.4
